- system-tested: Flt3 (Homo sapiens)
- Construct: purchased Upstate Company
- Sequence (P36888 27-993): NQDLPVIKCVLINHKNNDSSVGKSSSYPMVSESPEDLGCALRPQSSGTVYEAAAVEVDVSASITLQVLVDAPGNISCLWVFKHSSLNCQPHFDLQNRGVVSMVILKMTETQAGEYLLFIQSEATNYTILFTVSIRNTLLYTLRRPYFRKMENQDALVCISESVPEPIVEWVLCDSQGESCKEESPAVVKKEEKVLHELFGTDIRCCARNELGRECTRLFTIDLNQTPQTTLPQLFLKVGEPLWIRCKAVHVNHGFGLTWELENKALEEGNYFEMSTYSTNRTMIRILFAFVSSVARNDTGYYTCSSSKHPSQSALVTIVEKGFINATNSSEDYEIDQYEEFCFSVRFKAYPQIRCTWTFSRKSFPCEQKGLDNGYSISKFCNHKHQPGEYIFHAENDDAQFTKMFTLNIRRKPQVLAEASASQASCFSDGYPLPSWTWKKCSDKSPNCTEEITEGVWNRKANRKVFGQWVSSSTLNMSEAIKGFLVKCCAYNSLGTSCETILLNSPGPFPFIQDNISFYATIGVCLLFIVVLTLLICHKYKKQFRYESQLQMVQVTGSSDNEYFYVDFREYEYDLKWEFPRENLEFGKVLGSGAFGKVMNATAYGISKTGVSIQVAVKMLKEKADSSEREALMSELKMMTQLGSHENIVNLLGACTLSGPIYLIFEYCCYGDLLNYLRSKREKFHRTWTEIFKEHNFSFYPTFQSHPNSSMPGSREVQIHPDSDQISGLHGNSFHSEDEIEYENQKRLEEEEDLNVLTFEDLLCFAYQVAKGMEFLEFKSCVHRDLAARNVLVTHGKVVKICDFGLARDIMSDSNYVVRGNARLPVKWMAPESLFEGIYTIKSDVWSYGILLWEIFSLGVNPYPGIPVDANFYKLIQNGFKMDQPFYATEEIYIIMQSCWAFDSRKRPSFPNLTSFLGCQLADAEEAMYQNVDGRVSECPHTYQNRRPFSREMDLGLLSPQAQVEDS
- assay-procedure: Inhibition of Flt3 kinase
- Assay type: biochemical
- reported-conditions: Table 3
property-name: IC50

cpd_smiles=COc1cc(OC)c(Cl)c(NC(=O)c2csc3c(NC(=O)C4CC4)ncnc23)c1Cl system_tested="Flt3 (Homo sapiens)" meas_value="> 1000 nM"

====

- system-tested: FGFR3 (Homo sapiens)
- Construct: purchased Upstate Company
- Sequence (P22607 23-806, species assumed): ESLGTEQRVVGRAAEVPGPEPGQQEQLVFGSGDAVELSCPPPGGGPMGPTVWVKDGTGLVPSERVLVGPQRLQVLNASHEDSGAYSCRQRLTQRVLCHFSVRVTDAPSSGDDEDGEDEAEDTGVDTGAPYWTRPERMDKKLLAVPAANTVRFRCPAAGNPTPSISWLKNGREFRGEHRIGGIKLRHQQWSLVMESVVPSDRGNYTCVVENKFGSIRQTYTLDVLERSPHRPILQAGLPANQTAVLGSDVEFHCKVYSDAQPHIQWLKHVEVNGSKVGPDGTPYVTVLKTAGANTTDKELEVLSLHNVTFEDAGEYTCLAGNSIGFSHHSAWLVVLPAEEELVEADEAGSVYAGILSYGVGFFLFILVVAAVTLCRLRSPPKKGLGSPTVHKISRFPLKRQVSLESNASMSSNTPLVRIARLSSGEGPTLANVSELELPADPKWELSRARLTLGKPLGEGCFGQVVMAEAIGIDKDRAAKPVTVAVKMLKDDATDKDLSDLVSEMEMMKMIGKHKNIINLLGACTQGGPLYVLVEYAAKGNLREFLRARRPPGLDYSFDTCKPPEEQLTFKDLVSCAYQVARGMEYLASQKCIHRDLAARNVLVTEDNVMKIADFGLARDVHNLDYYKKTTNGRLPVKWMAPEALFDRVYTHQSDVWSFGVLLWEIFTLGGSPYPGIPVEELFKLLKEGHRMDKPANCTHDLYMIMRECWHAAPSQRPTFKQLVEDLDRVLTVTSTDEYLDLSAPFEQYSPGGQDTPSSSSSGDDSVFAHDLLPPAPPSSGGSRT
- assay-procedure: Inhibition of FGFR3 kinase (fluorescence polarization kinase assay)
- Assay type: biochemical
- reported-conditions: Table 2, class symbols; read-out: FGFR3 IC50
Collected IC50 values appear next to each entry.
property-name: IC50

compound="CCN1CCN(c2cc(Nc3ncnc4c(C(=O)Nc5c(Cl)c(OC)cc(OC)c5Cl)csc34)ncn2)CC1 [Example 182]" meas_value="1 to 100 nM"
compound="COc1cc(OC)c(Cl)c(NC(=O)c2csc3c(Nc4ccc(C)cn4)ncnc23)c1Cl [Example 178]" meas_value="100 to 500 nM"
compound="COc1cc(O)c(Cl)c(NC(=O)c2csc3c(N)ncnc23)c1Cl [Example 217]" meas_value="100 to 500 nM"
compound="CCN1CCN(c2ccc(C(=O)Nc3ncnc4c(C(=O)Nc5c(Cl)c(OC)c(Br)c(OC)c5Cl)csc34)cc2)CC1 [Example 203]" meas_value="1000 to 5000 nM"

====

- system-tested: FGFR1 (Homo sapiens, UniProt P11362)
- Construct: purchased Upstate Company
- Sequence (P11362 22-822, species assumed): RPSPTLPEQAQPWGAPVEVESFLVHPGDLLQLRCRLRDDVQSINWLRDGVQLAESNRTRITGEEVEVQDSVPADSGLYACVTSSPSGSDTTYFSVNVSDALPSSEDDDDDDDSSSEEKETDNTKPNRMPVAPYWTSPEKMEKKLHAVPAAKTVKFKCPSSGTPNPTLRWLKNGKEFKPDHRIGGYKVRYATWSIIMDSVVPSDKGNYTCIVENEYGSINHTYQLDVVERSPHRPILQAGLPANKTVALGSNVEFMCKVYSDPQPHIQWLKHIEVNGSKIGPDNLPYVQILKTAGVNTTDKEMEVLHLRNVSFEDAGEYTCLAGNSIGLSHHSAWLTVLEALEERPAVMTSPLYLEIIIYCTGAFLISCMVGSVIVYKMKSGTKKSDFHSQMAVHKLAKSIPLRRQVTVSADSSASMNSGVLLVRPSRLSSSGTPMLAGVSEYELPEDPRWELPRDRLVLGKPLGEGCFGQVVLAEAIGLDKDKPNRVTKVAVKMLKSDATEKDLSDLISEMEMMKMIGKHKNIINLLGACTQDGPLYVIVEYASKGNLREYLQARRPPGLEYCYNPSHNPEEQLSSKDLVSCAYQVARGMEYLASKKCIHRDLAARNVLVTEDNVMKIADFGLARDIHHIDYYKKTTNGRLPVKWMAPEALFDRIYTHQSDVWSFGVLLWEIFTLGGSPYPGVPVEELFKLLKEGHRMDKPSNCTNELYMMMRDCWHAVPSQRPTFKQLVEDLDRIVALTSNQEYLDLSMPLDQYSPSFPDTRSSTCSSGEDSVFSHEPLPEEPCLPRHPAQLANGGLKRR
- assay-procedure: Inhibition of FGFR1 kinase (fluorescence polarization kinase assay)
- Format: biochemical
- reported-conditions: Table 2, class symbols; read-out: FGFR1 IC50
- Protocol: Inhibition activities of kinases of the inventive compounds (test compounds) prepared in the Examples were assessed and represented as IC50 values. Kinases used in Test Examples 1 to 3 were purchased from Upstate Company. 100 mM HEPES (pH 7.4), 25 mM MgCl2, 10 mM MnCl2 and 250 μM Na3VO4 were mixed to prepare a kinase buffer. Each of kinases to be measured was diluted to a concentration of 25˜300 ng per one reaction according to its activity with the kinase buffer. […]
pIC50: −log10 of the molar value.
property-name: pIC50

cpd_smiles=COc1cc(OC)c(Cl)c(NC(=O)c2csc3c(Nc4ccc(N5CCC(N6CCCC6)CC5)cc4)ncnc23)c1Cl meas_value="6.30 to 7.00"
cpd_smiles=CCN1CCN(Cc2ccc(Nc3ncnc4c(C(=O)Nc5c(Cl)c(OC)cc(OC)c5Cl)csc34)nc2)CC1 meas_value="7.00 to 9.00"
cpd_smiles=COc1cc(OC)c(Cl)c(NC(=O)c2csc3c(Nc4ccc(NC(=O)CN(C)C)cn4)ncnc23)c1Cl meas_value="7.00 to 9.00"
cpd_smiles=COc1cc(OC)c(Cl)c(NC(=O)c2csc3c(Nc4ccc5cn[nH]c5c4)ncnc23)c1Cl meas_value="7.00 to 9.00"
cpd_smiles=COc1cc(OC)c(Cl)c(NC(=O)c2csc3c(Nc4ccc(CN5CCOCC5)cn4)ncnc23)c1Cl meas_value="7.00 to 9.00"
cpd_smiles=COc1cc(OC)c(Cl)c(NC(=O)c2csc3c(NCCNc4ccccc4)ncnc23)c1Cl meas_value="5.30 to 6.00"
cpd_smiles=CCOC(=O)NC(=S)Nc1ncnc2c(C(=O)Nc3c(Cl)c(OC)cc(OC)c3Cl)csc12 meas_value="6.30 to 7.00"
cpd_smiles=CCN1CCN(c2cccc(Nc3ncnc4c(C(=O)Nc5c(Cl)c(OC)cc(OC)c5Cl)csc34)c2)CC1 meas_value="6.30 to 7.00"

====

- system-tested: FGFR1 (Homo sapiens, UniProt P11362)
- Construct: purchased Upstate Company
- assay-procedure: Inhibition of FGFR1 kinase (fluorescence polarization kinase assay)
- Assay type: biochemical
- reported-conditions: Table 2, class symbols; read-out: FGFR1 IC50
- Method: Inhibition activities of kinases of the inventive compounds (test compounds) prepared in the Examples were assessed and represented as IC50 values. Kinases used in Test Examples 1 to 3 were purchased from Upstate Company. 100 mM HEPES (pH 7.4), 25 mM MgCl2, 10 mM MnCl2 and 250 μM Na3VO4 were mixed to prepare a kinase buffer. Each of kinases to be measured was diluted to a concentration of 25˜300 ng per one reaction according to its activity with the kinase buffer. […]
Collected IC50 values appear next to each entry.
property-name: IC50

cpd_smiles=COc1cc(O)c(Cl)c(NC(=O)c2csc3c(N)ncnc23)c1Cl system_tested="FGFR1 (Homo sapiens, UniProt P11362)" meas_value="0.001 to 0.1 µM"
cpd_smiles=CCN(CC)CCOc1ccc(Nc2ncnc3c(C(=O)Nc4c(Cl)c(OC)cc(OC)c4Cl)csc23)cc1 system_tested="FGFR1 (Homo sapiens, UniProt P11362)" meas_value="0.1 to 0.5 µM"
cpd_smiles=CCOC(=O)CNc1ncnc2c(C(=O)Nc3c(Cl)c(OC)cc(OC)c3Cl)csc12 system_tested="FGFR1 (Homo sapiens, UniProt P11362)" meas_value="1 to 5 µM"
cpd_smiles=COc1cc(OC)c(Cl)c(NC(=O)c2csc3c(Nc4nc5ccc(C)cc5s4)ncnc23)c1Cl system_tested="FGFR1 (Homo sapiens, UniProt P11362)" meas_value="0.5 to 1 µM"

====

- system-tested: PDGFRβ (Homo sapiens, UniProt P09619)
- Construct: purchased Upstate Company
- Sequence (P09619 33-1106, species assumed): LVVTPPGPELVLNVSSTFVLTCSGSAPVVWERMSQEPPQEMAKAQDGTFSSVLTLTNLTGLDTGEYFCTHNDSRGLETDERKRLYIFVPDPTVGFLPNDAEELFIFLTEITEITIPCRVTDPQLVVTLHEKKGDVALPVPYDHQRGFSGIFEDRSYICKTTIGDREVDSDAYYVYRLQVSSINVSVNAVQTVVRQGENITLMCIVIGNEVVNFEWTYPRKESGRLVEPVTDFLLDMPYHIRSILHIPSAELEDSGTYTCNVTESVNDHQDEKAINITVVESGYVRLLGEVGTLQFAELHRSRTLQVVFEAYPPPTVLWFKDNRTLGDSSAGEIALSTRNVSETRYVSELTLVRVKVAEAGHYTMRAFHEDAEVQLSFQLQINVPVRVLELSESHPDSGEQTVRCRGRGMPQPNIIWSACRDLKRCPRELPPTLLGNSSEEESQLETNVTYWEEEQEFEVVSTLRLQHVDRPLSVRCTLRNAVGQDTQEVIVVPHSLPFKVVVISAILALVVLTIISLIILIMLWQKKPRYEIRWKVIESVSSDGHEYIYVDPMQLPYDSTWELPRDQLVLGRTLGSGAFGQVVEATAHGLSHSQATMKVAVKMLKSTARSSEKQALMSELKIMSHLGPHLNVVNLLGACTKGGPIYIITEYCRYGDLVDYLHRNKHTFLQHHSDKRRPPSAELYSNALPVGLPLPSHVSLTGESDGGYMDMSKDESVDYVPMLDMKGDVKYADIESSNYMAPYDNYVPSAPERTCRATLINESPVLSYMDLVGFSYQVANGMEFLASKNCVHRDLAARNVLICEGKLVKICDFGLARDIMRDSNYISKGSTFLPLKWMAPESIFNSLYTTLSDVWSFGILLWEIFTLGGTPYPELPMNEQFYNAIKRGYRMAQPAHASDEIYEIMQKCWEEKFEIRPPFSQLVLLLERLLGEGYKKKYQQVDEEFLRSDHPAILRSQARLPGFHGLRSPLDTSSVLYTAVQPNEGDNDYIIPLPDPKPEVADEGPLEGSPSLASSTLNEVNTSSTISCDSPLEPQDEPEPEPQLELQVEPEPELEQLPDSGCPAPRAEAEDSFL
- assay-procedure: Inhibition of PDGFRβ kinase
- Assay type: biochemical
- reported-conditions: Table 3
property-name: IC50

cpd_smiles=COc1cc(OC)c(Cl)c(NC(=O)c2csc3c(NC(=O)C4CC4)ncnc23)c1Cl meas_value="> 1000 nM"
